runDescription: Quantitative High-Throughput drug screen in 47 multiple myeloma cell lines against the NCATS MIPE library collection: L363_DSMZ cell viability assay (AID 1918984); note: nearly all actives have a fitted effect of over 40% in size
condition: L363 myeloma viability, CellTiter-Glo ATP luminescence, 48 h; series mostly up to 45.8 µM
Inconclusive results are not listed. Calls of active or inactive are those of the source. Calls come from the whole dose curve; as a rule, active = well fitted cell-killing curve with a large enough effect; inconclusive = small, poorly fitted or top-dose-only effect, or effect the other way; inactive = no such curve, though single readings can be large or run the other way.
Respond only with the outcome that fits, drawn from 1 (yes) (active), 0 (no) (inactive)

As a guide, the following entries are already answered.
{"molecule": "CN1CCN(c2ccc3nc(-c4c(N)c5c(F)cccc5[nH]c4=O)[nH]c3c2)CC1", "qualitativeLabel": "1 (yes)"}
{"molecule": "CN1CCN(Cc2ccc(NC(=O)Nc3ccc(Oc4cc(NC(=O)C5CC5)ncn4)cc3)cc2C(F)(F)F)CC1", "qualitativeLabel": "0 (no)"}
{"molecule": "COCCOc1ccc2c(c1)ncn2-c1ccc2cccc(N3CCC(N)CC3)c2n1", "qualitativeLabel": "1 (yes)"}
{"molecule": "CC[C@H]1CN2CCc3cc(OC)c(OC)cc3[C@H]2C[C@@H]1C[C@@H]1NCCc2cc(OC)c(OC)cc21", "qualitativeLabel": "1 (yes)"}

What is the recorded call for this molecule in the test? `Nc1nc(NCCNc2ncc(-n3ccnc3)c(-c3ccc(Cl)cc3Cl)n2)ccc1[N+](=O)[O-]`
1 (yes)

What is the recorded call for this molecule in the test? `CCS(=O)(=O)c1cccc(-c2cc(C(=O)NC3CCN(C)CC3)c(C)c3[nH]c4ncc(C)cc4c23)c1`
1 (yes)

Origin of values: PubChem BioAssay (NCATS)
